Entry source: patent US20240270821A1

System: hGLP-1R (Homo sapiens)
Sequence (P43220 24-463): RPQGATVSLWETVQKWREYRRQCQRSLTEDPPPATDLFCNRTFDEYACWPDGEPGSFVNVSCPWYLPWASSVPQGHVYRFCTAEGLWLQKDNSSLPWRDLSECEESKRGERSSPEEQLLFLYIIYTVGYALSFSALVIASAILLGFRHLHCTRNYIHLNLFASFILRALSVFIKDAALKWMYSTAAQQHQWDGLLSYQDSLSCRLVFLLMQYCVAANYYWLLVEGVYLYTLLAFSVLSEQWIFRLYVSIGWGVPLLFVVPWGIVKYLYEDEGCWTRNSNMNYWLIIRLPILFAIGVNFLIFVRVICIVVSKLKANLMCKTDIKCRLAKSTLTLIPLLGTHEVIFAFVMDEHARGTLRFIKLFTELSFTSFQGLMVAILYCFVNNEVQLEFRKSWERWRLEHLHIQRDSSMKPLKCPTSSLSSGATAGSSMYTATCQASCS
Assay Method Text: Functional cAMP activation in the presence of 0.1% casein (no HSA)
Assay type: cell-based
Test Context: in the presence of 0.1% casein (no HSA); geometric mean; read-out: Relative cAMP EC50, hGLP-1R
Starred links: 1 amine or outer side, 2 acyl side, 3 side chain; linkers in the order of their positions; H or OH if unused. Non-standard residues stand in square brackets, D forms with d. Groups on a side chain read outwards from the residue. *: point of attachment. C18 diacid = O=C(O)CCCCCCCCCCCCCCCCC(=O)*; γGlu = O=C(O)[C@H](CCC(=O)[*:2])N[*:1]; 4Pal = N[C@@H](Cc1ccncc1)C(=O)O; αMeL = CC(C)C[C@](C)(N)C(=O)O; Orn = NCCC[C@H](N)C(=O)O; Dab = NCC[C@H](N)C(=O)O; Dap = NC[C@H](N)C(=O)O; AEEA = NCCOCCOCC(=O)O; Aib = CC(C)(N)C(=O)O
Parameter: EC50. Scope: all listed entries.

[
  {
    "Substance": "H-Y[Aib]QGTFTSDFS[Dap][αMeL]LDKK([AEEA-γGlu-C18 diacid])AQ[Aib]AFIEYLLE[Aib]GPSSGAPPPSGS-NH2 [Example 134]",
    "Scale Unit": "nM",
    "EC50": 3.36
  },
  {
    "Substance": "H-Y[Aib]QGTFTSDFS[Orn][αMeL]LDKK([AEEA-γGlu-C18 diacid])AQ[Aib]AFIEYLLEGGPSSGAPPPGGSG-NH2 [Example 64]",
    "Scale Unit": "nM",
    "EC50": 4.08
  },
  {
    "Substance": "H-Y[Aib]QGTFTSD[4Pal]S[Dab][αMeL]LDKK([AEEA-γGlu-C18 diacid])AQ[Aib]AFIEYLIE[Aib]GPSSGAPPPSGS-NH2 [Example 803]",
    "Scale Unit": "nM",
    "EC50": 2.02
  }
]

---

Each entry below carries its reported pEC50.
System: hGLP-1R (Homo sapiens)
Assay Method Text: Functional cAMP activation in the presence of 0.1% casein (no HSA);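 also: intracellular cAMP rise after 30 min at 37 °C read by HTRF, normalized between buffer only (0%) and maximal control ligand (100%), four-parameter variable-slope fit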
Type: cell-based
Test Context: in the presence of 0.1% casein (no HSA); geometric mean; read-out: Relative cAMP EC50, hGLP-1R
pEC50: −log10 of the molar value. Starred links: 1 amine or outer side, 2 acyl side, 3 side chain; linkers in the order of their positions; H or OH if unused. Non-standard residues stand in square brackets, D forms with d. Groups on a side chain read outwards from the residue. No end group written: not given here. *: point of attachment. C20 diacid = O=C(O)CCCCCCCCCCCCCCCCCCC(=O)*; C18 diacid = O=C(O)CCCCCCCCCCCCCCCCC(=O)*; αMePhe(2-F) = C[C@](N)(Cc1ccccc1F)C(=O)O; γGlu = O=C(O)[C@H](CCC(=O)[*:2])N[*:1]; αMe4Pal = C[C@](N)(Cc1ccncc1)C(=O)O; αMeY = C[C@](N)(Cc1ccc(O)cc1)C(=O)O; 4Pal = N[C@@H](Cc1ccncc1)C(=O)O; αMeL = CC(C)C[C@](C)(N)C(=O)O; αMeS = C[C@](N)(CO)C(=O)O; Orn = NCCC[C@H](N)C(=O)O; AEEA = NCCOCCOCC(=O)O; Aib = CC(C)(N)C(=O)O
Readout Name: pEC50

[
  {
    "Substance": "H-Y[Aib]QGTFTSDFS[Orn][αMeL]LDKK([AEEA-γGlu-C18 diacid])AQ[Aib]AFIEYLLE[Aib]G[4Pal]SSGAPPPSGS-NH2 [Example 242]",
    "Recorded Number": 8.47
  },
  {
    "Substance": "H-Y[Aib]QGTFTSDFS[Orn][αMeL]LDKK([AEEA-γGlu-C20 diacid])AQ[Aib]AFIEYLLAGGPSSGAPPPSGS[AEEA]-NH2 [Example 83]",
    "Recorded Number": 8.55
  },
  {
    "Substance": "H-Y[Aib]QGTFTSDFS[Orn][αMeL]LDKK([γGlu-AEEA-γGlu-C18 diacid])AQ[Aib]AFIEYLLE[Aib]GESSGAPPPSGS-NH2 [Example 244]",
    "Recorded Number": 8.11
  },
  {
    "Substance": "H-Y[Aib]QGTFTSDYSI[αMeL]LDKQAAK([AEEA-AEEA-γGlu-C20 diacid])QFVEWLIA[Aib]GPSSGEPPPAEG-NH2 [Example 334]",
    "Recorded Number": 9.15
  },
  {
    "Substance": "H-Y[Aib]QGTFTSD[4Pal][αMeS]Q[αMeL]LD[Orn]K([dE-γGlu-C18 diacid])AQ[αMe4Pal]QFIE[αMeY]LIA[Aib]GPSSGEPPPSGGGE-NH2 [Example 1182]",
    "Recorded Number": 9.10
  },
  {
    "Substance": "H-Y[Aib]QGTFTSDFS[Orn][αMeL]LDKK([AEEA-γGlu-C18 diacid])AQ[Aib]QFIEYLLAGGPSSGAPPPEGS-NH2 [Example 96]",
    "Recorded Number": 8.41
  },
  {
    "Substance": "H-Y[Aib]QGT[αMePhe(2-F)]TSD[4Pal][αMeS]I[αMeL]LD[Orn]K([AEEA-γGlu-C18 diacid])AQ[αMe4Pal]EFI[dE][αMeY]LVEGGPSSGAPPPTGE-NH2 [Example 1152]",
    "Recorded Number": 9.43
  },
  {
    "Substance": "H-Y[Aib]QGTFTSDFS[Orn][αMeL]LDKK([AEEA-AEEA-γGlu-C18 diacid])AQ[Aib]AFIEYLLE[dA]GPSSG[4Pal]PPPSG[4Pal]-NH2 [Example 258]",
    "Recorded Number": 8.57
  },
  {
    "Substance": "H-Y[Aib]QGTFTSD[4Pal]SR[αMeL]LDKK([AEEA-γGlu-C18 diacid])AQ[Aib]AFIEYLIE[Aib]GPSSGAPPPSGS-NH2 [Example 802]",
    "Recorded Number": 8.85
  },
  {
    "Substance": "Y[Aib]QGTFTSDFSK[αMeL]LDKK([AEEA-γGlu-C18 diacid])AQ[Aib]AFIEYLIE[Aib]GPSSGAPPPSGS-NH2 [Example 797]",
    "Recorded Number": 9.35
  },
  {
    "Substance": "H-Y[Aib]QGTFTSD[4Pal]SQ[αMeL]LDKK([γGlu-γGlu-C18 diacid])AQ[αMe4Pal]AFIE[αMe4Pal]LIEGGPSSGAPPPSGS-NH2 [Example 951]",
    "Recorded Number": 8.58
  }
]
